- Experimental system: UniProt P37231
- Sequence (P37231 231-505 limits assumed): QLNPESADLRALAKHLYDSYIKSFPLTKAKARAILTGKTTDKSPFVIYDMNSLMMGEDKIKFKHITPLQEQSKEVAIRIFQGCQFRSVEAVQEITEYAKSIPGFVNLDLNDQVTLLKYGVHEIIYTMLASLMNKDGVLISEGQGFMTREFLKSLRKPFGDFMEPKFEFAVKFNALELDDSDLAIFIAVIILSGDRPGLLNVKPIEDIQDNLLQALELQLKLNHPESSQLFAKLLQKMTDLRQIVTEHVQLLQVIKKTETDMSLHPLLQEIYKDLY
Quantity kind: Ki (nM)
Number in nM, nothing else.

So what's the measured Ki for this one? "C[C@H]1[C@H](C)CC[C@]2(C(=O)O)CC[C@]3(C)C(=CC[C@@H]4[C@@]5(C)C[C@@H](O)[C@H](O)[C@@](C)(CO)[C@@H]5[C@H](O)C[C@]43C)[C@H]12" 1610
